Assay: recombinant barcode read abundance after kanamycin selection (control-corrected) (log10(CPM+1)); higher = more efficient recombination; sequences stand for … in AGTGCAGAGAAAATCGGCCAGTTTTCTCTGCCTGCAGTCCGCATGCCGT…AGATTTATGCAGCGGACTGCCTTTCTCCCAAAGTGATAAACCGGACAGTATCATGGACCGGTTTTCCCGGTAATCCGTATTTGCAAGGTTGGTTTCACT; site = the 11-nt target;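 also: IS621 recombinase and bridge RNA in Escherichia coli cells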
recombinant barcode read abundance (log10) values for the sequences below.
// keep it numeric: no unit symbol after the value

Would you please look over these solved cases?
> print(dat)
                               sequencedata    val
1  TACTCACCTTGGGTTCTAACCTGTTGCTT (site TACTCACCTAA)  0.287
2  ATGACTACTTGGGTTCTAACCTGTTGCTC (site ATGACTACTTA)  0.135
3  CCAAGCACTTGGGTTCTAACCTGTTGCCT (site CCAAGCACTAG)  0.624

QUERY: Given the sequence AACCATCCTTGGGTTCTAACCTGTTGCCT (site AACCAGCCTAG) , what is its reported recombinant barcode read abundance (log10)?
RESULT: 0.0589

QUERY: Given the sequence CTACACACTTGGGTTCTAACCTGTTGCTC (site CTACACACTTA) , what is its reported recombinant barcode read abundance (log10)?
RESULT: 0.0402

// data source = the supplement of paper PMC11208160
